B1: MLL5 (parent)
chain: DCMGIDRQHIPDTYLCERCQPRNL

- Variants of: B1
- experimentDescription: protein stability index of a GFP-peptide fusion (GPS, HEK-293T) (PSI 1-6); higher = more stable;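 note: lentivirally expressed fusions sorted by FACS into six bins by GFP to DsRed ratio, PSI derived from sequencing read proportions per bin multiplied by bin number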
- protocolConditions: c terminus: a fixed tail appended
Assign protein stability index to each entry below.
One number for each entry.

Some entries whose results are on file:
>  <mutations>
C19Y

>  <experimentalValue>
2.8

$$$$
>  <mutations>
H9K

>  <experimentalValue>
3.58

$$$$
>  <mutations>
N23L

>  <experimentalValue>
2.5

$$$$
>  <mutations>
C19F

>  <experimentalValue>
3.14

$$$$
>  <mutations>
D12P

>  <experimentalValue>
3.19

$$$$
>  <mutations>
R18Q

>  <experimentalValue>
3.01

$$$$
>  <mutations>
Y14H

>  <experimentalValue>
4.12

$$$$
>  <mutations>
D6Y

>  <experimentalValue>
2.47

$$$$
>  <mutations>
C16N

>  <experimentalValue>
3.7

$$$$
>  <mutations>
Y14Q

>  <experimentalValue>
3.7

$$$$

Below are 2 variants. Give each one its protein stability index.
1. R7Q
2. T13A

3.06
3.59

Below are 8 variants. Give each one its protein stability index.
1. R22G
2. T13E
3. E17T
4. D12E
5. Q20K
6. D1I
7. C16E
8. L15H

3.28
3.71
3.07
2.81
2.68
2.17
3.65
3.32

Below are 2 variants. Give each one its protein stability index.
1. E17N
2. R18H

3.35
3.18
